System: GH Release
procedure-details: in vivo growth hormone bioassay in pentobarbital-anesthetized male rats, s.c. injection, plasma GH by RIA
Set-up: species or system rat
run-parameters: Table C; relative potency, SS-14 = 100; based on 4-point assays
Give measured INHIBITION POTENCY GH in vivo for each item. Keep answers brief.
Numbers only.

{"smiles-text": "CC(=O)N[C@H](Cc1ccccc1)C(=O)N[C@@H](CS)C(=O)N[C@@H](Cc1ccccc1)C(=O)N[C@H](Cc1c[nH]c2ccccc12)C(=O)N[C@@H](CCCCN)C(=O)N[C@H](C(=O)N[C@@H](CS)C(=O)N[C@H](C(N)=O)[C@@H](C)O)[C@@H](C)O", "INHIBITION POTENCY GH in vivo": 12900}
{"smiles-text": "CC(=O)N[C@@H](Cc1ccccc1)C(=O)N[C@@H](CS)C(=O)N[C@@H](Cc1ccccc1)C(=O)N[C@H](Cc1c[nH]c2ccccc12)C(=O)N[C@@H](CCCCN)C(=O)N[C@H](C(=O)N[C@@H](CS)C(=O)N[C@H](C(N)=O)[C@@H](C)O)[C@@H](C)O", "INHIBITION POTENCY GH in vivo": 11320}

Req: Form field: reported INHIBITION POTENCY GH in vivo of C[C@H](N)C(=O)NCC(=O)N[C@H]1CSSC[C@@H](C(=O)O)NC(=O)[C@H](CO)NC(=O)[C@H]([C@@H](C)O)NC(=O)[C@H](Cc2ccccc2)NC(=O)[C@H]([C@@H](C)O)NC(=O)[C@H](CCCCN)NC(=O)[C@H](Cc2c[nH]c3ccccc23)NC(=O)[C@H](Cc2ccccc2)NC(=O)[C@H](Cc2ccccc2)NC(=O)[C@H](CC(N)=O)NC(=O)[C@H](CCCCN)NC1=O
Resp: 100
